Tested on: M14 melanoma
Experiment: NCI-60 one-dose screen, 48 h (100 = growth as untreated, 0 = no growth, -100 = all killed)
Conditions: 10 µM unless noted
Protocol: Growth inhibition of the M14 human tumor cell line is measured as a screen for anti-cancer activity. Cells are grown in 96 well plates and exposed to the test compound for 48 hours. Compounds are tested at a single concentration, which is 10^-5 M for most compounds. The reported endpoint is percent growth (GI% or GIPRCNT), where numbers from 0 - 100% represent growth inhibition, and numbers from -100% - 0 represent cell death. For example, a value of 40 represents 60% growth inhibition. […]
About 83,000 compounds went through this panel and 20% of them were active in at least one assay; those are over-represented in the sample as a whole.
Quick list: growth per entry.
Provide only the numeric value, understood in %.

Solved cases (8 shown):
compound=C=C1C(=O)O[C@H]2[C@H]1CC/C(Cn1cc(-c3cc(C)c(C)cc3C)nn1)=C\CC[C@@]1(C)O[C@@H]21 measured_value=-57.3
compound="CCCC(=O)OCC1OC(n2cnc3c(=S)nc[nH]c32)C(OC(=O)CCC)C1OC(=O)CCC (stereo not drawn)" measured_value=13
compound="COC(=O)[C@@H](NC(=O)[C@@H](OC)[C@@H]1Cc2cc3cc(OC4CC(OC5CC(O)C(O)C(C)O5)C(O)C(C)O4)c(C)c(O)c3c(O)c2C(=O)[C@H]1OC1CC(OC2CC(OC3CC(C)(O)C(O)C(C)O3)C(O)C(C)O2)C(O)C(C)O1)C(C)C (stereo partly drawn)" measured_value=5.18
compound=NS(=O)(=O)c1ccc(CCN2C(=O)/C(=C\c3ccc(Cl)cc3)C=C2c2ccc3ccccc3c2)cc1 measured_value=95
compound=CC/C=C\C[C@H]1C/C=C2/C(=O)C=C[C@@H]2C/C=C\CCCC(=O)O1 measured_value=-17.4
compound=CN1CCN(CCOc2cc(OC3CCOCC3)c3c(Nc4c(Cl)ccc5c4OCO5)ncnc3c2)CC1 measured_value=79.4
compound=O=C(NOC[C@H](O)CO)c1ccc(F)c(F)c1Nc1ccc(I)cc1F measured_value=3.66
compound=COc1ccc(-c2nocc2-c2cc(OC)c(OC)c(OC)c2)cc1 measured_value=3.03

Query block: Short answer please: growth, M14 melanoma, entry CCCCN1CCCC[C@@H]1C(=O)N[C@H](C(=O)N(C)[C@H](CCc1nc(C(=O)N[C@@H](Cc2ccccc2)C[C@H](C)C(=O)OC)cs1)C(C)C)C(C)C
Result block: 49.9

Query block: Now the same for Clc1ccc(/C=C/c2cc(N3CCOCC3)c3cc(Cl)c(Cl)cc3n2)cc1
Result block: 98.5

Query block: Next entry: O=C1CC(c2ccc(Cl)cc2)c2ncn(-c3cccc(Cl)c3)c2N1 (stereo not drawn)
Result block: 21.6

Query block: Would you kindly repeat that for O=C(/C=C/c1ccc2c(c1)OCO2)c1c(O)c2ccccc2oc1=O ?
Result block: 94.9

Query block: Please answer likewise for CN1CC[C@H](c2c(O)cc(O)c3c(=O)cc(-c4ccccc4Cl)oc23)[C@H](O)C1
Result block: -50.1

Query block: Again, but for CC(C)[C@@H]1CC[C@]2(CO2)[C@@H]2C(=O)OCC(C(=O)O)=C[C@H]21
Result block: -48.5

Query block: Consider next the compound CC1CCC(n2cnc3c(Cl)ncnc32)O1 (stereo not drawn) in the same way.
Result block: 93.8

Query block: Cool, now Cn1cnc2c(F)c(Nc3ccc(Br)cc3Cl)c(C(=O)NOCCO)cc21
Result block: 6.05

Query block: What do you get for Nc1nc(N)c2nc(-c3cccc(O)c3)c(-c3cccc(O)c3)nc2n1 ?
Result block: 87.5

Query block: # repeat for COc1ccc(CCCc2c3[n+](cc4c(OC)c(OC)ccc24)CCc2cc4c(cc2-3)OCO4)cc1
Result block: 85.1

###

Tested on: OVCAR-3 ovarian
Assay: NCI-60 one-dose screen, 48 h (100 = growth as untreated, 0 = no growth, -100 = all killed)
Conditions: 10 µM unless noted
The panel holds about 83,000 compounds, 20% with a hit somewhere; the sample as a whole holds those more often.
Reported growth values for the following compounds.
Field: numeric (%). Do not append units.

Recorded results for 5 compounds are shown here.
smi=CCN(CC)C(=O)C[N+](C)(C)CCOC(c1ccccc1)c1ccccc1 measured_value=103
smi=COc1cc2nccc(Oc3ccc(NC(=O)Nc4cc(C)on4)c(Cl)c3)c2cc1OC measured_value=35.1
smi=O=C(/C=C/c1ccc2c(c1)OCO2)c1c(O)c2ccccc2oc1=O measured_value=104
smi=CCOC(=O)c1sc(NC(=O)COc2ccc(/C=C3\Cc4ccc(Cl)cc4C3=O)cc2)nc1C measured_value=113
smi=Cc1cnc(NC(=O)Nc2cc(Br)c(C)cc2OC[C@@H]2CNCCO2)cn1 measured_value=22.2

Query block: Fill in: growth of CC(C)c1ccc(/C=N/Nc2nc3ccccc3s2)cc1 is ___
Result block: 88.7

Query block: Next record, please: COc1cc2c(cc1O)c(=O)n(CCN(C)C)c1c3cc4c(cc3ncc21)OCO4
Result block: -39.9

Query block: Also COc1cc(C(=O)NNC(=O)c2ccc(NC(=O)CCl)cc2)cc(OC)c1OC ?
Result block: 62.4

Query block: Please do the same for Cc1c(NC(=O)OC[C@@H]2COCCN2)cn2ncnc(Nc3ccc4c(cnn4Cc4cccc(F)c4)c3)c12 as well.
Result block: 12.8

Query block: // query: CCS(=O)(=O)N1CCN(c2ccc(Nc3ncc(C(N)=O)c(NC4CC4)n3)cc2)CC1
Result block: 90.2

###

Test system: SK-MEL-28 melanoma
Experiment: NCI-60 one-dose screen, 48 h (100 = growth as untreated, 0 = no growth, -100 = all killed)
Details: 10 µM unless noted
About 83,000 compounds went through this panel and 20% of them were active in at least one assay; those are over-represented in the sample as a whole.
measured_attribute: growth (%)
Give the quantity in %, number only.

Some compounds with known growth results, for comparison:
compound=Cn1c(=O)c(F)c(Nc2ccc(I)cc2F)c2c(=O)n(C[C@@H](O)CO)cnc21 measured_attribute=growth unit_descriptor=% measured_value=0.0364
compound=Cc1ccc(NC(=O)Nc2ccc(Nc3ncnc4sc5c(c34)CCOC5)cc2)cc1Cl measured_attribute=growth unit_descriptor=% measured_value=111
compound=CNS(=O)(=O)Nc1nccc(Cc2c(C)c3ccc(Oc4ncccn4)cc3oc2=O)c1F measured_attribute=growth unit_descriptor=% measured_value=8.61
compound=COc1cc(OC)c(/C=C/S(=O)(=O)Cc2ccc(OC)c(NCC(=O)O)c2)c(OC)c1 measured_attribute=growth unit_descriptor=% measured_value=65.9
compound="COC(=O)[C@H](C)NC(=O)[C@@H](OC)[C@@H]1Cc2cc3cc(OC4CC(OC5CC(O)C(O)C(C)O5)C(O)C(C)O4)c(C)c(O)c3c(O)c2C(=O)[C@H]1OC1CC(OC2CC(OC3CC(C)(O)C(O)C(C)O3)C(O)C(C)O2)C(O)C(C)O1 (stereo partly drawn)" measured_attribute=growth unit_descriptor=% measured_value=-37.7

Query block: Fill in the blank: the reported growth of NN1C(=O)CSC1=S is ____.
Result block: 115

Query block: Please answer likewise for CCOC(=O)C1=C(C)N=C2Sc3cc(OC(F)(F)F)ccc3N2[C@H]1c1ccccn1
Result block: 42.4

Query block: Now the compound O=C1NC(=O)C(c2cnc3ccccn23)=C1c1cn2c3c(cc(F)cc13)CN(C(=O)N1CCCCC1)CC2
Result block: 76.8

Query block: What about N#Cc1c(-c2ccc(Cl)cc2)csc1NC(=O)Nc1cccc(C(F)(F)F)c1 ?
Result block: 14.3

Query block: Another: NC(=O)c1c(OCc2c(F)cc(Br)cc2F)nsc1NC(=O)NCCCCN1CCCC1
Result block: -74.6

Query block: Ok, now Cc1cc(Nc2cc(N3CCN(C)CC3)nc(/C=C/c3ccccc3)n2)n[nH]1
Result block: -65.4

Query block: Could you do the same for COc1cc2ncnc(Nc3ccc(F)c(Cl)c3)c2cc1NC(=O)/C=C/CN1CCCCC1 , please?
Result block: -85.5

Query block: Now try COc1cnc2c(c1)C(=O)c1c-2n(CCCn2ccnc2)c(=O)c2cc(Cl)ccc12 .
Result block: 52.2

Query block: Likewise for Cc1cc2c(-c3nc4ccccn4c3NC34CC5CC(CC(C5)C3)C4)c(O)c(O)cc2c(O)c1-c1c(C)cc2c(-c3nc4ccccn4c3NC34CC5CC(CC(C5)C3)C4)c(O)c(O)cc2c1O ?
Result block: 17.3

Query block: Query CN(c1ncccc1CNc1nc(Nc2ccc3c(c2)CC(=O)N3)ncc1C(F)(F)F)S(C)(=O)=O next
Result block: -16.1

Query block: Now try Cc1cc(C(=O)NOCCO)c(Nc2ccc(I)cc2F)n(C)c1=O .
Result block: 1.47

Query block: Please answer likewise for O=C(NO)c1ccc(Cn2c(=O)n(-c3ccccc3F)c(=O)c3ccccc32)cc1
Result block: -21.5

Query block: Try COc1cc(-c2nc(C(=O)NCC(=O)O)nn2-c2ccc(Cl)cc2)cc(OC)c1OC next.
Result block: 104
